Stability Study Results (HPLC) for assorted compounds
MEASUREMENT_DESCRIPTION: Stability study (storage at 60° C. and 60° C. 75% RH, measured by HPLC)
Type: physicochemical
CONDITION: 1 month at 60° C. 75% RH
Where a name gives a salt, the structure may show the parent alone.
ASSAY_ENDPOINT: Stability Study Results (HPLC)

{"COMPOUND": "O=P(O)(O)O", "NUMERIC_VALUE": 99.24}
{"COMPOUND": "Cl [HCl]", "NUMERIC_VALUE": 99.05}
{"COMPOUND": "O=C(O)CC(O)(CC(=O)O)C(=O)O", "NUMERIC_VALUE": 97.73}
{"COMPOUND": "O=C(O)/C=C/C(=O)O", "NUMERIC_VALUE": 99.64}

###

MEASUREMENT_DESCRIPTION: Stability study (storage at 60° C. and 60° C. 75% RH, measured by HPLC)
Type: physicochemical
Design: unit not given here
CONDITION: 20 days at 60° C. 75% RH
Counter-ions that a name gives are not always drawn.
ASSAY_ENDPOINT: Stability Study Results (HPLC)

{"COMPOUND": "O=C(O)/C=C/C(=O)O [Fumaric acid]", "NUMERIC_VALUE": 99.67}
{"COMPOUND": "Cl [HCl]", "NUMERIC_VALUE": 99.07}
{"COMPOUND": "O=C(O)CC(O)(CC(=O)O)C(=O)O [Citric acid]", "NUMERIC_VALUE": 98.34}
{"COMPOUND": "O=P(O)(O)O [Compound H3PO4]", "NUMERIC_VALUE": 99.20}

###

Stability Study Results (HPLC) for assorted molecules
MEASUREMENT_DESCRIPTION: Stability study (storage at 60° C. and 60° C. 75% RH, measured by HPLC)
Assay type: physicochemical
CONDITION: Initial
Structures can show the parent of a compound that is named as a salt.
ASSAY_ENDPOINT: Stability Study Results (HPLC)

{"MOLECULE": "O=P(O)(O)O", "RESULT": 99.20}
{"MOLECULE": "Cl [HCl]", "RESULT": 98.94}
{"MOLECULE": "O=C(O)CC(O)(CC(=O)O)C(=O)O", "RESULT": 99.08}
{"MOLECULE": "O=C(O)/C=C/C(=O)O", "RESULT": 99.48}

###

MEASUREMENT_DESCRIPTION: Stability study (storage at 60° C. and 60° C. 75% RH, measured by HPLC)
Format: physicochemical
CONDITION: 20 day at 60° C.
Description: Each sample was stored at 60° C. and 60° C. 75% RH for 1 month. Each sample was measured at 20 days and 1 month by HPLC. HPLC conditions are described below. Column: Waters XSelect CSH C18, 4.6×150 mm, 3.5 μm MPA: 50 mM HClO4 in water (pH=3) MPB: MeOH/acetonitrile (9:1)
Structures can show the parent of a compound that is named as a salt.

{"COMPOUND": "O=P(O)(O)O", "Stability Study Results (HPLC)": 99.20}
{"COMPOUND": "O=C(O)CC(O)(CC(=O)O)C(=O)O", "Stability Study Results (HPLC)": 99.10}
{"COMPOUND": "O=C(O)/C=C/C(=O)O", "Stability Study Results (HPLC)": 99.54}
{"COMPOUND": "Cl [HCl]", "Stability Study Results (HPLC)": 98.50}

###

MEASUREMENT_DESCRIPTION: Stability study (storage at 60° C. and 60° C. 75% RH, measured by HPLC)
Type: physicochemical
Parameters: unit not given here
CONDITION: 1 month at 60° C.
Counter-ions that a name gives are not always drawn.
ASSAY_ENDPOINT: Stability Study Results (HPLC)

{"COMPOUND": "O=C(O)CC(O)(CC(=O)O)C(=O)O [Citric acid]", "NUMERIC_VALUE": 99.16}
{"COMPOUND": "O=C(O)/C=C/C(=O)O [Fumaric acid]", "NUMERIC_VALUE": 99.60}
{"COMPOUND": "O=P(O)(O)O [Compound H3PO4]", "NUMERIC_VALUE": 99.23}
{"COMPOUND": "Cl [HCl]", "NUMERIC_VALUE": 98.89}
